This collection of values is drawn from ChEMBL document CHEMBL1201862.

Kindly supply the reported EC50 values for the records listed here.
molecular target: Luciferin 4-monooxygenase (Photinus pyralis, UniProt P08659); assay: firefly luciferase enzyme inhibitors, dose response, biochemical, luminescence (AID 1891)
Sequence (P08659 whole entry): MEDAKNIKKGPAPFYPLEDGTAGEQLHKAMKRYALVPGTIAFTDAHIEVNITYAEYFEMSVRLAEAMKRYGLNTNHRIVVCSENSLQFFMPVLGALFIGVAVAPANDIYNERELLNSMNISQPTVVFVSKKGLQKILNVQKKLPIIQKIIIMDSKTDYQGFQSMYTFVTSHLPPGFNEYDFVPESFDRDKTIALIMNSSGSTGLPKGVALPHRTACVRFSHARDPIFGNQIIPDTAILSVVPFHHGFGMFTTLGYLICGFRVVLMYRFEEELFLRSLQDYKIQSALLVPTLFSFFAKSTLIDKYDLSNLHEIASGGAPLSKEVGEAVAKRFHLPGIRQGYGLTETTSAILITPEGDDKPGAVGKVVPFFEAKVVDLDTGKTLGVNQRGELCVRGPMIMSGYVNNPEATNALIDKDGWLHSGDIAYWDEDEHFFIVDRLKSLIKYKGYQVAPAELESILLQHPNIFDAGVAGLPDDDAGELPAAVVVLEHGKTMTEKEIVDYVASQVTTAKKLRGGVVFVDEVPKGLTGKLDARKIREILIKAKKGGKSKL
Calls of active or inactive are those of the source.

compound=CCCn1nc(NS(=O)(=O)c2ccc(F)cc2)c2cc3ccccc3nc21 system_under_test="Luciferin 4-monooxygenase (Photinus pyralis, UniProt P08659)" experimental_value="> 112 µM (not active)"
compound=Fc1ccc(-c2nnc(NC3=NCCCCC3)o2)cc1 system_under_test="Luciferin 4-monooxygenase (Photinus pyralis, UniProt P08659)" experimental_value="13.9 µM (active)"
compound="CC(C)C(=O)Nc1ncc2c(n1)CC(c1cccs1)CC2=O (stereo unspecified)" system_under_test="Luciferin 4-monooxygenase (Photinus pyralis, UniProt P08659)" experimental_value="> 112 µM (not active)"
compound=O=C(Nc1ccc(N2CCCCC2)cc1)c1ccccn1 system_under_test="Luciferin 4-monooxygenase (Photinus pyralis, UniProt P08659)" experimental_value="1.06 µM (active)"
compound=Cc1ccc(C)c(N2CCN(S(=O)(=O)c3ccc4c(c3)OCCO4)CC2)c1 system_under_test="Luciferin 4-monooxygenase (Photinus pyralis, UniProt P08659)" experimental_value="> 112 µM (not active)"
compound=COc1cccc(NC(=O)c2cnn(-c3ccccc3)c2C)c1 system_under_test="Luciferin 4-monooxygenase (Photinus pyralis, UniProt P08659)" experimental_value="8.62 µM (active)"
compound="Cc1cccc(N2CC(C)Cn3c2nc2c3c(=O)n(CC(=O)OCc3ccccc3)c(=O)n2C)c1 (stereo unspecified)" system_under_test="Luciferin 4-monooxygenase (Photinus pyralis, UniProt P08659)" experimental_value="27.8 µM (active)"
compound=COc1ccc(C(=O)ON=C(N)c2ccccn2)cc1 system_under_test="Luciferin 4-monooxygenase (Photinus pyralis, UniProt P08659)" experimental_value="1.47 µM (active)"

Look at each compound and report its EC50.
1. Cc1ccsc1C(=O)Nc1ccc(OCc2ccccc2)cc1
2. O=C1c2ccccc2C(O)N1CCN1CCOCC1 (stereo unspecified)
3. O=C(NCCC1=CCCCC1)NC1CCCCC1

1.7 µM (active)
> 112 µM (not active)
> 112 µM (not active)

* * *

Kindly supply the reported IC50 values for the records listed here.
Target: UniProt:Q8IL11
Sequence (Q8IL11 whole entry): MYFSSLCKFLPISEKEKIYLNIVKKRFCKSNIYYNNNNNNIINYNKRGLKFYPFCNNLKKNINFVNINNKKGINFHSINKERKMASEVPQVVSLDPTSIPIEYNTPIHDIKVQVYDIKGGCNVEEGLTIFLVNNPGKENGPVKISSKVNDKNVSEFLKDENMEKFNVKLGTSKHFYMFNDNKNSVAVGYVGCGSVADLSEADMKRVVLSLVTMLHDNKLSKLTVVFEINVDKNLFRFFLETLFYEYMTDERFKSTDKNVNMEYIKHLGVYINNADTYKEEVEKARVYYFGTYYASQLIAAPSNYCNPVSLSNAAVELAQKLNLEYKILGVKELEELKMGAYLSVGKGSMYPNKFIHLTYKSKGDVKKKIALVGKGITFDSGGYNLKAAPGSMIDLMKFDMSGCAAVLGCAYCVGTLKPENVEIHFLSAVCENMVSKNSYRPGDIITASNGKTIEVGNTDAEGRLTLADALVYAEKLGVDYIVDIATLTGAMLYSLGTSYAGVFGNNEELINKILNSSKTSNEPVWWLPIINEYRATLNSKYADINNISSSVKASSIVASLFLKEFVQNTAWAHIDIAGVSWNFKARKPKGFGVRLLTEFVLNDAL
Assay: P. falciparum M17LAP inhibitors, primary screen, biochemical, fluorogenic H-Leu-NHMec substrate, 1536-well (AID 1619)
Format: functional
Calls of active or inactive are those of the source.

Sample answers from the record:
molecule="Cc1sc(NC(=O)C2CCCCC2C(=O)O)c(C(N)=O)c1-c1ccc(C(C)(C)C)cc1 (stereo unspecified)" experimental_value="11.1 µM (active)"
molecule="CC[C@H](C)[C@H](NC(=O)[C@H](Cc1ccc(O)cc1)NC(=O)[C@@H](N)C(C)C)C(=O)N[C@@H](Cc1cnc[nH]1)C(=O)N1CCC[C@H]1C(=O)N[C@@H](Cc1ccccc1)C(=O)O [ANGIOTENSIN IV]" experimental_value="1.53 µM (active)"
molecule=Sc1n[nH]c(C2CCCCC2)n1 experimental_value="13.8 µM (active)"
molecule="O=C(O)C1CCCCC1C(=O)Nc1ccc(F)c(F)c1 (stereo unspecified)" experimental_value="37.8 µM (active)"
molecule=Cc1cccc(Nc2nnc(SCC(=O)Nc3ccc(C(=O)O)cc3)s2)c1 experimental_value="24.3 µM (active)"

Continue with the next molecule.
Which value of IC50 has been reported for CC(=O)c1c(C)oc2ccc(NS(=O)(=O)c3ccc(O)c(C(=O)O)c3)cc12 in the records? 9.78 µM (active)
